Read-out: Tissue Factor, F3 (gene 2152)
Assay: BSK_LPS_TissueFactor: BioMAP Diversity Plus: LPS Assay for Tissue Factor Biomarker Activity (AID 2283084)
Conditions: primary human HUVEC with PBMC; actives raise or lower the signal
Description: BSK_LPS is a cell-based, multiplexed-readout assay that uses umbilical vein endothelium and peripheral blood mononuclear cells, a human vascular primary cell co-culture, with measurements taken at 24 hours after chemical dosing in a 96-well plate.BSK_LPS_TissueFactor is an assay component measured in the BSK_LPS assay. […] This assay endpoint, BSK_LPS_TissueFactor, was analyzed with bidirectional fitting relative to DMSO as the negative control and baseline of activity. […]
Calls of active or inactive are those of the source. Rule for the calls: active = hit-call score of the fitted dose curve at least 0.9, where 1 is the maximum; inactive = score below 0.9.
Experimental Endpoint: AC50

> print(dat)
                                    molecule  experimental.endpoint    observed.value
 1    O=C(O)Cc1cc(I)c(Oc2ccc(O)c(I)c2)c(I)c1                   AC50          inactive
 2                             CCCCCCCCCCCCO                   AC50  19.8 µM (active)
 3  CC1(C)NC(=O)N(c2ccc([N+](=O)[O-])c(C(F)(F)F)c2)C1=O                   AC50          inactive
 4  O=C(O)c1ccccc1-n1cc(C(=O)O)c(=O)c2cc(Nc3c(F)cc(F)cc3Cl)c(Cl)cc21                   AC50          inactive
 5       CCCCCCCCOc1ccc(C(=O)c2ccccc2)c(O)c1                   AC50  12.6 µM (active)
 6  OC12N=C(c3ccccc3)SC1Cc1cc(Cl)ccc12 (stereo not drawn)                   AC50          inactive
 7  CN(C[C@@H](CC[N+]12CCC(C3CCCCC3)(CC1)CC2)c1ccc(Cl)c(Cl)c1)C(=O)c1cc(C(F)(F)F)cc(C(F)(F)F)c1                   AC50    25 µM (active)
 8                          CCCC(=O)OCCC(C)C                   AC50          inactive
 9    Clc1ccccc1C(c1ccccc1)(c1ccccc1)n1ccnc1                   AC50  31.9 µM (active)
10  C[C@]12CC[C@@H]3c4ccc(O)cc4CC[C@H]3[C@@H]1CCC2=O                   AC50          inactive
11  O=C(O)Cn1c(=O)n(Cc2ccc(Br)cc2F)c(=O)c2ccc(Cl)cc21                   AC50          inactive
12  Cc1occc1C(=O)Nc1ccc(C(=O)N2CCC(F)(F)/C(=C\C(=O)N3CCC(N4CCCCC4)CC3)c3ccccc32)cc1                   AC50          inactive
13        O=C(OCCCCCCOC(=O)c1ccccc1)c1ccccc1                   AC50          inactive
14                  CN1C(=O)CC[C@H]1c1cccnc1                   AC50          inactive
15  CC[C@H](NC(=O)c1cc(F)ccc1NS(=O)(=O)c1cccc2cccnc12)c1ccccc1                   AC50          inactive
16                          CCCCCc1ccc(N)cc1                   AC50          inactive
17                          Cc1ccc(C(C)C)cc1                   AC50          inactive
18           O=C1O[C@H]([C@@H](O)CO)C(O)=C1O                   AC50          inactive
19                   CCCCCCCCCCCC[N+](C)(C)C                   AC50  32.4 µM (active)
20  O=C1c2ccccc2C(=O)N1CCc1noc(-c2ccc(CN3CCCCCC3)s2)n1                   AC50          inactive
21            Cc1c2ccccc2c(C)c2c1ccc1ccccc12                   AC50          inactive
22           CCCCCCCCOC(=O)c1cc(O)c(O)c(O)c1                   AC50  32.4 µM (active)
23  CCN(Cc1cccc(S(=O)(=O)O)c1)c1ccc(C(=C2C=CC(=[N+](CC)Cc3cccc(S(=O)(=O)O)c3)C=C2)c2ccccc2S(=O)(=O)[O-])cc1                   AC50          inactive
